- Tested on: HT-3;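 further: growth inhibition measured with a cell viability readout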
- methodSummary: cells
- Assay type: functional, cell-based, Homo sapiens
- conditionLabel: Homo sapiens, HT-3
- Description: SANGER: Inhibition of human HT-3 cell growth in a cell viability assay.
parameter: pIC50
Give bare numbers, as −log10 of the molar value.

compound | recordedMeasurement
COc1ccc(-c2ccc3c(N4CCOC[C@@H]4C)nc(N4CCOC[C@@H]4C)nc3n2)cc1CO [AZD-8055] | 5.78

Task: Item CN(Cc1cnc2nc(N)nc(N)c2n1)c1ccc(C(=O)N[C@@H](CCC(=O)O)C(=O)O)cc1 [METHOTREXATE] has what recorded pIC50?
Result: 7.16

----------
Give measured IC50 for each item. Keep answers brief.
- System: ABC-1;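 further: growth inhibition of human ABC-1 cells, read out by a cell viability assay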
- methodSummary: cells
- Assay type: functional, cell-based, Homo sapiens
- conditionLabel: Homo sapiens, ABC-1
- Description: SANGER: Inhibition of human ABC-1 cell growth in a cell viability assay.

compound | testedSystem | IC50
Cc1cnc(-c2cnc(NCCNc3ccc(C#N)cn3)nc2-c2ccc(Cl)cc2Cl)[nH]1 [LADUVIGLUSIB] | ABC-1 | > 2.56 µM

Return reported IC50 values for all items listed beneath this line.
1. CN(C)C/C=C/C(=O)Nc1cc2c(Nc3ccc(F)c(Cl)c3)ncnc2cc1O[C@H]1CCOC1 [AFATINIB]
2. COc1ccc(C2=N[C@@H](c3ccc(Cl)cc3)[C@@H](c3ccc(Cl)cc3)N2C(=O)N2CCNC(=O)C2)c(OC(C)C)c1 [NUTLIN-3]
3. COC(=O)CNC(=O)C(=O)OC
4. CC(=O)O[C@@H]1[C@@H](OC(C)=O)[C@@H](O)[C@H](Oc2c(-c3ccc(O)cc3)oc3cc(O)cc(O)c3c2=O)O[C@H]1C

Result:
1. > 0.5 µM
2. > 8 µM
3. 447 µM
4. > 10 µM
